# System: SF-295 CNS
# ASSAY TEXT: NCI tumour cell line growth inhibition, 48 h
READOUT TYPE: TGI

Quick one: TGI for `CN1C(=O)c2c(c3c4ccccc4n(C)c3c3c2c2ccccc2n3C)C1=O` ?
> 100 µM

Which measured TGI value corresponds to `C=C1C(=O)O[C@H]2[C@H]1CC/C(COC(=O)NCCc1ccc(Br)cc1)=C\CC[C@@]1(C)O[C@@H]21` ?
15.5 µM

Returns the measured TGI for the input molecule. Input: `O=C(N/N=C/c1ccc(O)cc1)NNCCO`
> 100 µM

Look up TGI for this molecule: CCOC1=C2N=C(C(CC)c3ccc(F)cc3)N=C2C(=O)c2ccccc21 (configuration not stated)
63.7 µM

What value of TGI has been recorded for this entry: `CN1CCN(CCCn2c3c(sc4ncccc43)c(=O)n3nnc(-c4ccccc4)c23)CC1`
3.36 µM

Find the recorded TGI belonging to `O=S(=O)(O)c1ccc([Se][Se]c2ccc(S(=O)(=O)O)cc2)cc1` and report it.
> 100 µM

Consider the molecule CCN(CC(O)COc1ccc2c(c1)[n+]([O-])nc(N)[n+]2[O-])C(C)=O (configuration not stated) and give its measured TGI.
> 100 µM

TGI for `Cc1ccccc1N=C(c1ccccc1)C1C(=O)c2ccccc2C1=O` ?
36.5 µM

What measured TGI goes with `COc1cc2cc(C(=O)Nc3ccccc3)c(N)nc2cc1OC` ?
> 100 µM

Look at this molecule and give its reported TGI. CC(C)C(N=C1CC2CCC1(C(=O)Nc1ccccc1O)C2(C)C)c1ccccc1 (configuration not stated)
> 10 µM

I would be grateful if you could share the reported TGI for `Cc1cc(NCCCCCCCCNc2cc(C)nc3cc(N(C)C)ccc23)c2ccc(N(C)C)cc2n1` .
30.2 µM

May I ask what TGI has been recorded for COc1ccc(C2[C@@H](Cl)C(=O)N2c2ccc(OC)cc2)cc1 (some centres not stated) ?
> 100 µM

May I ask what TGI has been recorded for `NS(=O)(=O)c1ccc(NC(=O)Nc2cccc3ccccc23)cc1` ?
> 100 µM

Look up TGI: `O=C(O)[C@@H](Cc1ccccc1)NS(=O)(=O)c1ccc(-c2ccccc2)cc1`
> 100 µM

Need TGI, item `Clc1ccc(Nc2nnc(COc3ccccc3)c3ccccc23)cc1`
6.7 µM

Dear colleague, I am looking for the recorded TGI of the following molecule: `COc1ccc(/C=N/NC(=O)NCCNCCO)cc1`
> 100 µM

Consider the molecule C=C1C(=O)OC2C=C(C)CC3C=C(CCC=C(C)CCC12)C(=O)O3 (configuration not stated) and give its measured TGI.
200 µM

Report TGI for COc1ccc(CC2OC3(CCCCC3)CC3CCCCN32)cc1 (configuration not stated) please.
> 100 µM

Entry `c1ccc(OCC[P+](c2ccccc2)(c2ccccc2)c2ccccc2)cc1` has what TGI?
15.7 µM

TGI for `c1ccc2c(c1)CCCc1nnc3nc4ccccc4n3c1-2` ?
> 100 µM

// lookup TGI for O=S1c2ccccc2N=C(c2cccs2)CC1c1ccccc1O (configuration not stated)
> 100 µM

Can you share its TGI? I mean this molecule: `N#Cc1cc([N+](=O)[O-])ccc1NC(=O)C(=O)Nn1c(=S)[nH]c2ccccc2c1=O`
> 100 µM

----------
# Tested on: TK-10 renal
# ASSAY TEXT: NCI tumour cell line growth inhibition, 48 h; in the data active means GI50 below about 0.43 µM; inactive means the rest
A correct response names exactly one class from label 1 for active, label 0 for inactive

Status in this test for `O=C(/C=C/c1cc2ccccc2[nH]c1=O)c1ccc(O)cc1` ?
label 0

Assay result, entry `COc1cc(-c2cc(-c3ccc(Nc4nc(Nc5ccc(Cl)cc5)nc(Nc5ccc(Cl)cc5)n4)cc3)no2)cc(OC)c1OC` — outcome?
label 0

Fill in: this test's call for `Cc1c(-c2c(F)cc(C(N)=O)c3[nH]c4c(c23)CC[C@H](C(C)(C)O)C4)cccc1-n1c(=O)c2cccc(F)c2n(C)c1=O` is ___
label 0

What outcome does the record of this test show for C[C@H]1O[C@@H](O[C@H]2[C@@H](O)C[C@H](O[C@H]3[C@@H](O)C[C@H](O[C@H]4CC[C@]5(C)C6CC[C@]7(C)[C@@H](C8=CC(=O)OC8)CC[C@]7(O)C6CC[C@@H]5C4)O[C@@H]3C)O[C@@H]2C)C[C@H](O)[C@@H]1O (stereo partly drawn) ?
label 1

Would you mind telling me which call this test gave COc1ccc(C2CC(=O)Nc3c2c(C)nn3-c2nc3ccccc3[nH]2)cc1OC (stereo not drawn) ?
label 0

Query: recorded result category for `CN1CCN(CCCn2c3c(sc4ncccc43)c(=O)n3nnc(-c4ccccc4)c23)CC1` in this test
label 0

Answer briefly: the call reported for `O=C1NC(=O)/C(=C/c2ccc3nccc(-c4ccncc4)c3c2)S1` in this assay.
label 1

Would you mind telling me which call this test gave `c1ccc(OCC[P+](c2ccccc2)(c2ccccc2)c2ccccc2)cc1` ?
label 0

----------
# Test system: HS 578T breast
# ASSAY TEXT: NCI tumour cell line growth inhibition, 48 h
Assign GI50 to each entry below.

For the record `COc1cc(-c2cc(-c3ccc(Nc4nc(Nc5ccc(Cl)cc5)nc(Nc5ccc(Cl)cc5)n4)cc3)no2)cc(OC)c1OC` , what value of GI50 is listed for HS 578T breast?
1.71 µM

Give the reported GI50 for C#Cc1cccc(NC(=O)C2CCCCN2C(=O)CCl)c1 (stereo not given) (system: HS 578T breast).
18.4 µM

Record lookup: for HS 578T breast, what GI50 belongs to CC1(/C=C/c2ccc(-c3ccccc3)cc2)CCn2cnc3ncnc(c32)N1O (stereo not given) ?
3.37 µM

Find GI50 (HS 578T breast) for the entry `Cc1ccc2c(c1)n([O-])c(C(F)(F)F)c(C(=O)c1ccco1)[n+]2=O`
1.2 µM

So what GI50 did `O=C(Nc1n[nH]c2cc(-c3ccc(F)cc3)ccc12)C1CC1` get with HS 578T breast?
10.7 µM

----------
# Tested on: OVCAR-5 ovarian
# ASSAY TEXT: NCI tumour cell line growth inhibition, 48 h
READOUT TYPE: TGI

Give recorded TGI with OVCAR-5 ovarian for the following molecule: `Nc1cc2c3ccccc3ccc2c2ccccc12`
> 100 µM

Given the entry CCN1CC2(CO)CCC(OC)C34C5CC6C(OC)CC(O)(C5C6OC)C(O)(C(OC)C23)C14 (stereo unspecified) , what TGI was observed with OVCAR-5 ovarian?
> 209 µM

State its TGI on OVCAR-5 ovarian: `O=c1[nH]c(C2CCCCC2)nc2ccc(Cl)cc12`
> 100 µM

Give OVCAR-5 ovarian TGI for `c1ccc(C(OCCN2CC3CCC(C2)N3)c2ccccc2)cc1`
> 100 µM

Please tell me: TGI of `CCn1c(C)nc([N+](=O)[O-])c1Sc1ncc[nH]1` , system OVCAR-5 ovarian?
> 100 µM

# value lookup — system OVCAR-5 ovarian, readout TGI, item `CC(=O)OCc1cc[c]([Hg][Cl])o1`
30.2 µM

----------
# System: HL-60(TB) leukemia
# ASSAY TEXT: NCI tumour cell line growth inhibition, 48 h; in the data active = GI50 below about 0.43 µM; inactive = the rest
// classify into active, inactive

Dear all, I need the recorded test outcome for `COc1cc2cc(C(=O)Nc3ccccc3)c(N)nc2cc1OC` , thank you.
inactive

Each molecule tested received a call. Report the one for O=c1[nH]c(=O)n(C2C[C@@H](O)[C@@H](CO)O2)cc1F (some centres undefined) .
inactive

Given `COc1ccc(N2CCN(c3nc(-c4ccccn4)nc4sc5c(c34)CCCCCC5)CC2)cc1` , state the outcome it received in this test.
inactive

Tell me the assay call for `Cc1ccccc1N=C(c1ccccc1)C1C(=O)c2ccccc2C1=O` please.
inactive

Could you please tell me the result logged for `Cc1cc(S(=O)(=O)Nc2nc3ccccc3s2)c(SCc2ccccc2)cc1Cl` in this assay?
inactive

What did this assay record as the result for C[C@H]1O[C@@H](O[C@H]2[C@@H](O)C[C@H](O[C@H]3[C@@H](O)C[C@H](O[C@H]4CC[C@]5(C)C6CC[C@]7(C)[C@@H](C8=CC(=O)OC8)CC[C@]7(O)C6CC[C@@H]5C4)O[C@@H]3C)O[C@@H]2C)C[C@H](O)[C@@H]1O (some centres undefined) ?
active

Tell me the recorded outcome of this test for O=[N+]([O-])c1ccc(NC(c2ccccc2)c2ccc3cccnc3c2O)cc1 (centres undefined) .
active

What outcome does the record of this test show for `c1ccc2c(c1)CCCc1nnc3nc4ccccc4n3c1-2` ?
inactive

Hi, sorry to bother you, what did the test record for OCC1OC(n2cnc3cc(Cl)c(Cl)cc32)C(O)C1O (centres undefined) ?
inactive

----------
# System: CCRF-CEM leukemia
# ASSAY TEXT: NCI tumour cell line growth inhibition, 48 h; in the data active = GI50 below about 0.43 µM; inactive = the rest
Thanks in advance; please answer with one of these: active, inactive

Could you check what this test reported for `O=C(Nc1c(Cl)cccc1Cl)Oc1cccc2cccnc12` ?
inactive

Could you kindly confirm the outcome this assay logged for `c1ccc2cc(Cn3c(-c4cccc5ccccc45)[n+](Cc4ccc5ccccc5c4)c4c5ccccc5c5ccccc5c43)ccc2c1` ?
active

# outcome recorded in this test, key = O=c1[nH]c(=O)n(C2C[C@@H](O)[C@@H](CO)O2)cc1F (stereo not given in full)
active

For this molecule, state the assay outcome: C=C1[C@H](O)C[C@@H](C(C)C(O)CC=C(C)C)[C@@H](O)[C@@H]2C(C)=CC[C@@H]12 (stereo not given in full)
inactive

Could you kindly confirm the outcome this assay logged for C#Cc1cccc(NC(=O)C2CCCCN2C(=O)CCl)c1 (stereo not given) ?
inactive
